Values from PubChem BioAssay (NCI)

- Tested on: K-562 leukemia
- PROTOCOL: NCI tumour cell line growth inhibition, 48 h
// TGI lookup, one value per entry

Example cases with answers are listed next.
molecule=O=C1/C(=C\c2ccc(O)cc2)CCC/C1=C/c1ccc(Cl)c(Cl)c1 reported_measurement="11.9 µM"
molecule=Cc1nn2c(/C=C3\C(=O)Nc4ccc(Cl)cc43)c(C)nc2s1 reported_measurement="> 100 µM"
molecule="O=C1c2cc(Cl)ccc2-n2cnnc2C2CSCN12 (stereo unspecified)" reported_measurement="> 100 µM"
molecule=COc1cc2c(cc1C)NC(=O)/C2=C/c1ccccn1 reported_measurement="> 100 µM"
molecule=CN(C)CCCSc1nc2ccccc2[nH]1 reported_measurement="> 100 µM"
molecule=COCCOC(=O)c1c(C)n([O-])c2cc(Cl)c(Cl)cc2[n+]1=O reported_measurement="34.7 µM"

stdin: Recorded TGI of [N-]=[N+]=Nc1ccccc1C(=O)N1C(=O)c2ccccc2C(=O)N(C(=O)c2ccccc2N=[N+]=[N-])c2ccccc21 , please.
stdout: > 100 µM

----------
- System: NCI-H522 lung
- PROTOCOL: NCI tumour cell line growth inhibition, 48 h
READOUT LABEL: TGI (µM)
API: value field is a number in µM; no unit string.

molecule=CN[C@@H](C)C(=O)N[C@H](C(=O)N1CCC[C@H]1C(=O)Nc1snnc1-c1ccccc1)C1CCCCC1 assay_system="NCI-H522 lung" readout_label=TGI reported_measurement=53.4
molecule="C=CCOc1cccc(C2(O)c3ccccc3C3=NCCCN32)c1 (stereo not given)" assay_system="NCI-H522 lung" readout_label=TGI reported_measurement=41.4
molecule=COC(=O)C1(C(=O)OC)Cc2ccc(OC)cc2C2=C1C(=O)c1ccccc1C2=O assay_system="NCI-H522 lung" readout_label=TGI reported_measurement=8.89

stdin: Recorded TGI of COC1=C(OC)C(=O)C(Cc2c(Cl)nc3sc(C)cn23)=C(C)C1=O , please.
stdout: 30.2

----------
- System: HOP-62 NSCLC
- PROTOCOL: NCI tumour cell line growth inhibition, 48 h
READOUT LABEL: TGI

molecule=CC(C)(C)c1ccc(Oc2nccc(-c3c(-c4ccc(F)cc4)ncn3C3CCNCC3)n2)cc1 assay_system="HOP-62 NSCLC" readout_label=TGI reported_measurement="7.88 µM"
molecule=CNC1=C(C)C(=O)C(=O)C([C@H](C)CCC=C(C)C)=C1O assay_system="HOP-62 NSCLC" readout_label=TGI reported_measurement="> 31.6 µM"
molecule=C[C@]12CCC(=O)C=C1CC[C@@H]1[C@@H]2CC[C@]2(C)C(=O)NC(=O)C[C@@H]12 assay_system="HOP-62 NSCLC" readout_label=TGI reported_measurement="> 100 µM"
molecule="COC(=O)C1(C)CCC(c2ccc(C)cc2)=C(CC(=O)O)C1 (stereo unspecified)" assay_system="HOP-62 NSCLC" readout_label=TGI reported_measurement="> 100 µM"
molecule="c1ccc2c(c1)cc(C1NCCc3[nH]cnc31)c1ccccc12 (stereo unspecified)" assay_system="HOP-62 NSCLC" readout_label=TGI reported_measurement="> 88.6 µM"

stdin: Recorded TGI of N#Cc1c(N)nc(-c2ccc(Cl)cc2)c2c1-c1ccccc1S(=O)(=O)CC2 , please.
stdout: > 100 µM

stdin: Recorded TGI of C=C(C)C(=O)O[C@H]1CC(=C)[C@@H]2C[C@H](O)[C@](O)(CCl)[C@@H]2[C@H]2OC(=O)C(=C)[C@@H]21 , please.
stdout: 23.3 µM

stdin: Recorded TGI of O=[N+]([O-])O.[Cu+2].[NH-]CC[NH-].[NH-]CC[NH-] , please.
stdout: > 10 µM

stdin: Recorded TGI of OC1(c2cccs2)c2cccc(Cl)c2C(O)(c2cccs2)c2c(Cl)cccc21 (stereo unspecified) , please.
stdout: > 100 µM

stdin: Recorded TGI of COc1cc(/C=C/C(=O)c2cccc(Nc3nc(Nc4ccccc4)nc(Nc4ccccc4)n3)c2)cc(OC)c1OC , please.
stdout: > 94.5 µM
